# experimentNotes: 1-octanol/PBS distribution co-efficient, log D of the compound at pH 7.4
# Type: physicochemical
Can you tell me logD for the items I'm about to list?
One number for each entry.

// known answers, use as guide
>  <compound>
NC(=O)Cc1ccc(Nc2nnc(-c3ccccc3OCC3COCCO3)c3sccc23)c(F)c1 (centres undefined)

>  <logD>
1.8

$$$$
>  <compound>
COCCOc1ccccc1-c1nnc(Nc2ccc(CC(N)=O)cc2F)c2ccsc12

>  <logD>
2.1

$$$$
>  <compound>
COCCOCCOc1ccccc1-c1nnc(Nc2ccc(CC(N)=O)cc2F)c2ccsc12

>  <logD>
1.8

$$$$
>  <compound>
NC(=O)Cc1ccc(Nc2nnc(-c3ccccc3OCc3ccccn3)c3sccc23)c(F)c1

>  <logD>
2.9

$$$$
>  <compound>
CC(C)(C)NC(=O)NCCOCCOc1ccccc1-c1nnc(Nc2ccc(CC(N)=O)cc2F)c2ccsc12

>  <logD>
2.9

$$$$

// each compound listed below needs its logD
1. CC(C)(C)OC(=O)NCCOCCOc1ccccc1-c1nnc(Nc2ccc(CC(N)=O)cc2F)c2ccsc12
2. COc1ccccc1-c1nnc(Nc2ccc(CC(N)=O)cc2F)c2ccsc12
3. NC(=O)Cc1ccc(Nc2nnc(-c3ccccc3OCc3cscn3)c3sccc23)c(F)c1
4. COc1ccccc1-c1nnc(Nc2ccc(CC(N)=O)cc2)c2c1CCC2

Reply |
1: 3.2; 2: 2.6; 3: 2.6; 4: 2.3

* * *

# experimentNotes: Cmax in db/db mouse plasma at 30 mg/kg, po measured up to 4 hrs
# Format: ADME, organism-based
# Parameters: dose 30 mg/kg, route oral
measuredProperty: Cmax (µM)
One number for each entry, in µM.

Ask | Item under review: COCCOc1ccccc1-c1nnc(Nc2ccc(CC(N)=O)cc2F)c2ccsc12 . Reported Cmax?
Reply | 4.38

* * *

# experimentNotes: Cmax in db/db mouse plasma at 10 mg/kg, po measured up to 4 hrs
# Format: ADME, organism-based
# Design: dose 10 mg/kg, route oral
measuredProperty: Cmax
Record the result as number plus unit.

Ask | Recorded Cmax of COCCOc1ccccc1-c1nnc(Nc2ccc(CC(N)=O)cc2F)c2ccsc12 , please.
Reply | 4 µM

* * *

# testedSystem: Solute carrier family 2, facilitated glucose transporter member 4 (Rattus norvegicus)
# experimentNotes: Induction of GLUT4 translocation in rat L6-GLUT4myc differentiated myotube cells at 30 uM after 20 mins by chemiluminescent method relative to 30 uM 2-(4-(4-phenylphthalazin-1-ylamino)phenyl)acetamide
Calls of active or inactive are those of the source. The calls are words filed in the database; no cut-off is given here.
measuredProperty: fold change (FC)

Before answering, review these 5 worked examples.
>  <inputSmiles>
Cc1cccc(-c2nnc(Nc3ccc(CC(N)=O)cc3)c3ccccc23)c1

>  <valueObserved>
1.3

$$$$
>  <inputSmiles>
CCc1ccccc1-c1nnc(Nc2ccc(CC(N)=O)cc2)c2ccccc12

>  <valueObserved>
1.7

$$$$
>  <inputSmiles>
COc1cccc(-c2nnc(Nc3ccc(CC(N)=O)cc3)c3ccccc23)c1

>  <valueObserved>
1

$$$$
>  <inputSmiles>
COc1ccc(-c2nnc(Nc3ccc(CC(N)=O)cc3)c3ccccc23)cc1

>  <valueObserved>
inactive

$$$$
>  <inputSmiles>
COc1ccccc1-c1nnc(Nc2ccc(CC(N)=O)cc2)c(C)c1C

>  <valueObserved>
3.7

$$$$

Okay, here is my list. What is fold change (FC) for each of these?
1. Cc1ccccc1-c1nnc(Nc2ccc(CC(N)=O)cc2)c2ccccc12
2. COc1ccccc1-c1nnc(Nc2ccc(CC(N)=O)cc2)c2c1CCC2

Reply |
[1.6, 4.7]

Each molecule below has a recorded value; state its fold change (FC).
1. COc1ccccc1-c1nnc(Nc2ccc(CC(N)=O)cc2)c2c1CCCC2
2. CCc1c(Nc2ccc(CC(N)=O)cc2)nnc(-c2ccccc2OC)c1CC
3. COc1ccccc1-c1nnc(Nc2ccc(CC(N)=O)cc2)c2ccccc12

Reply |
1. 0.9
2. inactive
3. 2.7
